Measured values drawn from patent US20040214995A1 for this set.

IC50 values for the binders below.
molecular target: HLA-A2.1 (heavy chain with human beta 2-microglobulin) (human)

binder	IC50, nM
VLYRYGSFSV [gp100 peptide G10-5 (VLYRYGSFSV)]	13
LLDGTATLRL [gp100 peptide G10-4 (LLDGTATLRL)]	483
